Test system: HCT-116 colon
Test: NCI-60 one-dose screen, 48 h (100 = growth as untreated, 0 = no growth, -100 = all killed)
Details: 10 µM unless noted
The panel holds about 83,000 compounds, 20% with a hit somewhere; the sample as a whole holds those more often.
endpoint.label: growth (%)
State the answer as a number, implicitly in %.

Worked set:
// query Name the recorded growth of the item O=C(Nc1cccc2[nH]c(C(F)(F)F)nc12)c1ccc(F)cc1 in your answer.
// result 84.4

// query Name the recorded growth of the item Cn1cnc2nc[nH]c2c1=S in your answer.
// result 106

// query Name the recorded growth of the item CCCCCCCCCCCCc1ccc([N+](CC)(CC)CC)cc1 in your answer.
// result 41.8

---
// query Name the recorded growth of the item N=c1c2c(=O)n3c(nc2nc2sc4ccc(Cl)cc4n12)-c1ccccc1Sc1ccccc1-3 in your answer.
// result 7.35

// query Name the recorded growth of the item Cc1nc2ccccc2c(=O)n1-c1cccc(OCc2cn(-c3cccc(O)c3)nn2)c1 in your answer.
// result 95.2

// query Name the recorded growth of the item Clc1ccc(I)c2ccccc12 in your answer.
// result 97.4

// query Name the recorded growth of the item O=C1NCCN1/N=C/c1c(Cl)nc2n1CCS2 in your answer.
// result 93.5

// query Name the recorded growth of the item COC(=O)c1cc(Nc2ccc(O)c3c2C(=O)c2c([N+](=O)[O-])ccc(O)c2C3=O)cc(C(=O)OC)c1 in your answer.
// result 36.1

// query Name the recorded growth of the item Cc1ccc(C(=O)Nc2ccc(CN3CCN(C)CC3)c(C(F)(F)F)c2)cc1C#Cc1cnc(N)c2ccc(F)cc12 in your answer.
// result -96.5

// query Name the recorded growth of the item C[C@]12CC[C@H]3[C@@H](CC[C@H]4C[C@@H](O)CC[C@@]43C)[C@@H]1CC(=O)C2 in your answer.
// result 99.3
